Assayed System: Amyloid-beta precursor protein (Homo sapiens, UniProt P05067)
Sequence (P05067 whole entry): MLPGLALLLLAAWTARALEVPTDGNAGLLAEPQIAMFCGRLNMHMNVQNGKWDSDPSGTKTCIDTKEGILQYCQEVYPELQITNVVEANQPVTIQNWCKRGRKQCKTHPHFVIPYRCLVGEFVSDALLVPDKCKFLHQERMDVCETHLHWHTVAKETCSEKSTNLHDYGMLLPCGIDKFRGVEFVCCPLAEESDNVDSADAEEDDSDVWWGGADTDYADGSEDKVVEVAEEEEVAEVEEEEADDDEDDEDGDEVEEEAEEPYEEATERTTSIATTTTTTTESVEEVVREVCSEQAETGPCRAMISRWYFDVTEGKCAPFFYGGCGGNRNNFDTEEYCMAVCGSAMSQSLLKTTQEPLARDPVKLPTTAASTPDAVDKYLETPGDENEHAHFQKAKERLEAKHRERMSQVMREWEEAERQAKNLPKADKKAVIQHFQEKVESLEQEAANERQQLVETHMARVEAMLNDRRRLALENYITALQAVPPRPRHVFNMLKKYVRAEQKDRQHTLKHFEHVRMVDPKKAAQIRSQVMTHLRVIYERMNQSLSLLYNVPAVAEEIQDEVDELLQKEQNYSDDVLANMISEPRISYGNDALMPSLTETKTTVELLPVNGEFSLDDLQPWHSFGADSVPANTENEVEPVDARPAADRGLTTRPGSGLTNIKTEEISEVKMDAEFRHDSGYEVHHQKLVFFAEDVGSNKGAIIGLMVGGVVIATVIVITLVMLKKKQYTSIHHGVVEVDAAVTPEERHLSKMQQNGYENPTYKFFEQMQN
pIC50: −log10 of the molar value.
Value Kind: pIC50

Example entries begin here.
> print(dat)
                        molecular.string  value.kind  readout.number
1      CNc1ccc(-c2nc3ccc(OC)cc3s2)c(F)n1       pIC50            7.85
2       COc1ccc2nc(-c3ccc(NCCF)nc3)oc2c1       pIC50            7.46
3  CNc1ccc(-c2cc3cc(C(N)=O)ccc3o2)c(F)n1       pIC50            7.72
4   NC(=O)c1ccc(-c2cc3cc(O)ccc3o2)c(F)n1       pIC50            7.36
5       CNc1ccc(-c2nc3ccc(O)cc3s2)c(F)n1       pIC50            6.91

I. CNc1ccc(-c2nc3ccc(O)cc3s2)cc1F
II. Oc1ccc2nc(-c3ccc(NCCCF)nc3)oc2c1
For the pair I and II , which entry has the numerically smaller recorded pIC50? Mark your selection by writing its label. II
